protocol-summary: Drug repurposing screens with cells derived from glioblastoma tumor samples (AID 1345199); note: % is set by controls: 0 for no effect and ±100 for the full control effect
details: GBM patient neurospheres viability, ATP luminescence, 48 h; at 45.9 µM (top of the series); tumour line B
Inconclusive results are not listed.
Listed here: items and their measured activity, negative = cell killing.

compound | activity, negative = cell killing / %
CCOC(=O)O[C@]1(C(=O)OCCl)CC[C@@H]2[C@H]3CCC4=CC(=O)C=C[C@]4(C)[C@@H]3[C@@H](O)C[C@@]21C | -4.15
CC(=O)O[C@]1(C(C)=O)CC[C@H]2[C@@H]3C=C(Cl)C4=CC(=O)[C@@H]5C[C@@H]5[C@]4(C)[C@H]3CC[C@@]21C | -17.9
CCCNC(=O)NS(=O)(=O)c1ccc(Cl)cc1 | -7.96
O=c1[nH]cnc2c1ncn2[C@H]1CC[C@@H](CO)O1 | -2.39
NC(N)=Nc1nc(CSCC/C(N)=N/S(N)(=O)=O)cs1 | -1.53
CN(C)c1cc(NC(=O)CNC(C)(C)C)c(O)c2c1C[C@@H]1C[C@H]3[C@H](N(C)C)C(=O)C(C(N)=O)=C(O)[C@@]3(O)C(=O)C1=C2O | 8.46
CC(=O)Oc1cc2c(s1)CCN(C(C(=O)C1CC1)c1ccccc1F)C2 (centres undefined) | 4.77
CCN(CC)C(=O)c1ccc(O)c(OC)c1 | -9.11
CN1C[C@H]2c3ccccc3Oc3ccc(Cl)cc3[C@@H]2C1 | -17.5
O=C(O)c1cc(-c2ccccc2)nc2ccccc12 | -26
CC1(C)O[C@H]2C[C@@H]3[C@H]4CCC5=CC(=O)C=C[C@]5(C)[C@@]4(F)[C@@H](O)C[C@]3(C)[C@]2(C(=O)CO)O1 | -4.78
COC(=O)[C@@H]1[C@H]2C[C@H]3c4[nH]c5ccccc5c4CCN3C[C@@H]2CC[C@@H]1O | 3.23
CC(=O)N[C@@H](CS)C(=O)O | -7.88
CCN(CC)CCNC(=O)c1ccc(N)cc1 | -3.23
